The measured values listed here are drawn from the supplement of paper PMC10065799.

Recorded phosphorylation enrichment by entry
TEST TARGET: Jak2 (UniProt O60674)
Sequence (O60674 whole entry, looked up): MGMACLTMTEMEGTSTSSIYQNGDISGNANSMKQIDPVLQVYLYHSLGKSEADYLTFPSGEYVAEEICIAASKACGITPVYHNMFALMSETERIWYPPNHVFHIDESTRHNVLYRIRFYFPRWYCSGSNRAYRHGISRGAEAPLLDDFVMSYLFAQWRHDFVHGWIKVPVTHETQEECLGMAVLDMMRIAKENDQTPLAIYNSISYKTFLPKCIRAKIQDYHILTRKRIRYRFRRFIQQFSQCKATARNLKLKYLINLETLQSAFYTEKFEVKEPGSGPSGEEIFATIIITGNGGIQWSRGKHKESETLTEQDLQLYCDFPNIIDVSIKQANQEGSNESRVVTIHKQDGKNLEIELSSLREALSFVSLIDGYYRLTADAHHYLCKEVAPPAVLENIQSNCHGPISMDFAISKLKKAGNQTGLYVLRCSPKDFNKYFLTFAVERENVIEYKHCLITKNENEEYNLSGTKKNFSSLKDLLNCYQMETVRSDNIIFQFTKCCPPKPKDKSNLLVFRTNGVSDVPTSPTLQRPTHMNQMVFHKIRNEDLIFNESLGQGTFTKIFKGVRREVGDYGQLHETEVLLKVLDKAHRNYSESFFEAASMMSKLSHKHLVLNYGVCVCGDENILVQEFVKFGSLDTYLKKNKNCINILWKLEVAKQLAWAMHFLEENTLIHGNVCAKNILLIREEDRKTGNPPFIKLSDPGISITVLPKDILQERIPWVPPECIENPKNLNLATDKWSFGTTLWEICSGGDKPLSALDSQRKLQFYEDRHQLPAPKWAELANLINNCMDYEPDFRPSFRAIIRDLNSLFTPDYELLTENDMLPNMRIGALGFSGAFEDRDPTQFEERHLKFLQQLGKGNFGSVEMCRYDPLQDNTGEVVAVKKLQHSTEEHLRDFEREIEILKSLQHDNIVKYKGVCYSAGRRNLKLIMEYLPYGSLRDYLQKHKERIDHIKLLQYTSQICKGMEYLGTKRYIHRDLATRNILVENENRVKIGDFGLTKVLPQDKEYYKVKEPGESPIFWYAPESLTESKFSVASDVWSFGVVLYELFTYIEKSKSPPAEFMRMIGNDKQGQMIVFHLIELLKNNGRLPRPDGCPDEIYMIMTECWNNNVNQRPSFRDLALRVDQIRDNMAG
PROCEDURE TEXT: phosphorylation enrichment, bacterial display (enrichment ratio); higher = better substrate or ligand; peptides without Tyr show the background;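 also: 11-residue human phosphosite peptides and single-mutation variants displayed on the E. coli surface, counted by deep sequencing, each peptide's frequency after selection divided by its frequency in the unselected input library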;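 also: frequency after pTyr selection over input frequency; kinase dosed for 20-30% of maximal phosphorylation in three min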

The cases that follow already have their phosphorylation enrichment on record.
{"RESIDUES": "SKHHLYSDLQT [PTCHD1_Y84_R82H]", "TEST TARGET": "Jak2 (UniProt O60674)", "phosphorylation enrichment": 0.887}
{"RESIDUES": "DFGSGYPNDPK [RNASEH2A_Y210_YF]", "TEST TARGET": "Jak2 (UniProt O60674)", "phosphorylation enrichment": 0.906}

Reported phosphorylation enrichment for LYEDRYLLGTS [ASS1_Y87] was 0.894

Reported phosphorylation enrichment for CTTIHYNFMCF [TP53_Y234_N239Y_YF] was 0.913
